viscosity overview
- test-context: 318.15 K; 100 kPa
± gives the uncertainty stated by the source.
Your reply should be a number followed by the unit it is expressed in.

The following compounds have reported results that may help.
# entry-smiles, readout-value
records = [
    ("CCCCCCCO", "3.407 ± 0.092 mPa·s"),
    ("C[N+](C)(C)CCC[n+]1ccccc1.N#C[N-]C#N.N#C[N-]C#N", "280.7 ± 29 mPa·s"),
    ("CC/C=C\\CCO", "1.807 ± 0.022 mPa·s"),
    ("COP(=O)([O-])OC.C[N+]1(CCO)CCCC1", "272.8 ± 19 mPa·s"),
]

Here is another compound to look at.
Consider "OC1CCCCC1" . Its measured viscosity is 20.14 ± 3 mPa·s
